For each record, write down the corresponding HEKBlue TGFβ blocking IC50.
Experimental System: T1, human TGFβ3, mature dimeric form (human, UniProt P10600 301-412)
T1 sequence: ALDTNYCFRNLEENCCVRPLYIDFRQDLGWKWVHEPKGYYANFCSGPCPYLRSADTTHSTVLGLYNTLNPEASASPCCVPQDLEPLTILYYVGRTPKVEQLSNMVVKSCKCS
Method Description: cell-based or functional assay

h6F12.v1.4 (antibody, human IgG1, kappa, N297G, V domains shown) VH: EVTLKESGPVLVKPTETLTLTCTVSGFSLTTYNVHWVRQPPGKALEWMGLIWNTGGTRYNSALKSRLTISKDTSKSQVVLTMTNMDPVDTATYYCARDPVPNKWHFDFWGPGTLVTVSS VL: DIQMTQSPSTLSASVGDRVTITCLASEDIYSNLAWYQQKPGKSPKLLIYDARSLQDGVPSRFSGSESGPEFTLTISSLQPDDFATYFCQQHHAYPFTFGQGTKVEIKR    > 200 nM

Could you now look at the following binder, please?
# binder h6F12.v1.5 (antibody, human IgG1, kappa, N297G, V domains shown) VH: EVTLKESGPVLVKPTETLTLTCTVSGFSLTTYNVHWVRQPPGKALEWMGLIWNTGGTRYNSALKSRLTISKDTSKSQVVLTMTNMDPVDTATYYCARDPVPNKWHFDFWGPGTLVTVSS VL: DIQMTQSPSTLSASVGDRVTITCLASEDIYSNLAWYQQKPGKSPKLLIYDARSLQDGVPSRFSGSESGPEYTLTISSLQPDDFATYYCQQHHAYPFTFGQGTKVEIKR ; its HEKBlue TGFβ blocking IC50 = > 200 nM
